Target: T1, human OX40 on cells (CHO-hOX40, 293HEK-hOX40, Jurkat-hOX40, activated primary CD4+ T cells) (human, UniProt P43489 29-277)
T1 sequence (looked up): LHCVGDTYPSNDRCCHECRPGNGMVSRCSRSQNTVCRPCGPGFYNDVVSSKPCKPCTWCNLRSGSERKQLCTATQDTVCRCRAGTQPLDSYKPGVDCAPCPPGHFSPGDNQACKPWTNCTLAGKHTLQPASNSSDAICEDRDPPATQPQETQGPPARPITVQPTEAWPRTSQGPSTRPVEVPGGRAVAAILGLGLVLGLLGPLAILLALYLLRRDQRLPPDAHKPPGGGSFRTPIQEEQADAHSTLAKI
Experiment: cell-based or functional assay
PROPERTY_LABEL: NFkB-Luc fold change in Jurkat stimulated by PHA+ anti-CD28 (fold over IgG4 control)
One number for each entry, in fold over IgG4 control.

# input What value of NFkB-Luc fold change in Jurkat stimulated by PHA+ anti-CD28 has been recorded for this entry: ADI-20066, IgG1 format (antibody, V domains shown, Made in yeast) VH: QLQLQESGPGLVKPSETLSLTCTVSGGSISSSSYYWGWIRQPPGKGLEWIGSIYYSGSTYYNPSLKSRVTISVDTSKNQFSLKLSSVTAADTAVYYCARDPGYSASPNWFDPWGQGTLVTVSS VL: EIVLTQSPGTLSLSPGERATLSCRASQSVSSSFLAWYQQKPGQAPRLLIYGASSRATGIPDRFSGSGSGTDFTLTISRLEPEDFAVYYCQQYDVFPITFGGGTKVEIKR
# output 2.09
